Data provenance is ChEMBL document CHEMBL1134177.

studyTarget: Protein farnesyltransferase (Homo sapiens, UniProt P49354+P49356)
assayDetails: Inhibitory activity against Farnesyltransferase
measuredQuantity: IC50 (µM)
Answers are plain numbers, in µM.

Solved entries (count: 3):
smilesText	IC50 / µM
CCCCCCCCCCCCCCCCCC(=O)NCCC(=O)Nc1cccc(S(=O)(=O)Nc2cccc(C)c2C)c1	2.5
Cc1cccc(NS(=O)(=O)c2cccc(NC(=O)CCNC(=O)/C=C/c3ccc(-c4ccccc4)cc3)c2)c1C	3.4
CCCCC/C=C\C/C=C\CCCCCCCC(=O)NCCC(=O)Nc1cccc(S(=O)(=O)Nc2cccc(C)c2C)c1	3.8

Pending compound:
Query: Output measured IC50 for this item: `CCCCCCCCCCCCCCCCC(=O)NCC(=O)Nc1cccc(S(=O)(=O)Nc2cccc(C)c2C)c1`
Reply: 3.5

====

studyTarget: CAAX prenyl protease 2 (Homo sapiens)
Sequence (Q9Y256 whole entry): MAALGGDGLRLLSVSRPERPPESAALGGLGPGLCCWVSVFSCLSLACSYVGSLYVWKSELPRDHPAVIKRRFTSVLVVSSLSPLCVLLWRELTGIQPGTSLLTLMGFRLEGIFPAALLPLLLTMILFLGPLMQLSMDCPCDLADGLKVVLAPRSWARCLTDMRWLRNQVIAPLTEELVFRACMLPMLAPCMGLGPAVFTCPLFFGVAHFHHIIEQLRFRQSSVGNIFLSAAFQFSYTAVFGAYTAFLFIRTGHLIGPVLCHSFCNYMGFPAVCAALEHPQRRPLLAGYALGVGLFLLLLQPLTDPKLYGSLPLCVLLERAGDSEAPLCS
assayDetails: Inhibition of recombinant prenyl protein-specific protease Rcel expressed in Sf9 cells
measuredQuantity: pIC50
One number for each entry, as −log10 of the molar value.

Query: Please list pIC50 recorded for the compound `CCCCC/C=C\C/C=C\CCCCCCCC(=O)NCCC(=O)Nc1cccc(S(=O)(=O)Nc2cccc(C)c2C)c1`
Reply: 4.85

====

studyTarget: CAAX prenyl protease 2 (Homo sapiens) (UniProt Q9Y256)
assayDetails: Inhibition of recombinant prenyl protein-specific protease Rce1 in Sf9 cells at a concentration of 10 uM
measuredQuantity: inhibition (%)
Answers are plain numbers, in %.

smilesText	resultNumber
CCCCCCCCCCCCCCCC(=O)NCCC(=O)Nc1cccc(S(=O)(=O)Nc2cccc(C)c2C)c1	18

Return reported inhibition values for all items listed beneath this line.
1. CCCCCCCCCCCCCCCC(=O)NCCC(=O)Nc1cccc(C(=O)Nc2cccc(C)c2C)c1
2. CCCCCCCCCCCCCCCC(=O)NCCC(=O)Nc1cccc(S(=O)(=O)NCCc2c[nH]c3ccccc23)c1
3. CCCCCCCCCCCCCCC(=O)NCCCC(=O)Nc1cccc(S(=O)(=O)Nc2cccc(C)c2C)c1

Reply:
1: 11; 2: 23; 3: 21

====

studyTarget: CAAX prenyl protease 2 (Homo sapiens)
Sequence (whole entry): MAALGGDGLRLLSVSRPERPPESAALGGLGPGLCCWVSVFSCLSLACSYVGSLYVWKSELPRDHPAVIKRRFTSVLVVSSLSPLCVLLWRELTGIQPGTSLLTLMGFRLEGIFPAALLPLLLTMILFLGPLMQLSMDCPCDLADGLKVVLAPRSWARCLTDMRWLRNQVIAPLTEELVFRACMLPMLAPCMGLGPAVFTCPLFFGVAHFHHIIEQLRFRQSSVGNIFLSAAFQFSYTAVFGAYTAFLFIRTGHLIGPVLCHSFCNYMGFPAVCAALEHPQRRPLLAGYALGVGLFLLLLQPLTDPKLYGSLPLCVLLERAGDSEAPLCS
assayDetails: Inhibition of recombinant prenyl protein-specific protease Rce1 in Sf9 cells at a concentration of 10 uM
measuredQuantity: inhibition (%)
Numbers only, in %.

smilesText	uom	inhibition
CCCCCCCCCCCCCCCC(=O)NCCC(=O)Nc1ccc(S(=O)(=O)N[C@@H](CCSC)C(=O)OC)cc1	%	28
CCCCCCCCCCCCCCCC(=O)N(C)CCC(=O)Nc1cccc(S(=O)(=O)Nc2cccc(C)c2C)c1	%	22
CCCCCCCCCCCCCCCC(=O)NCCC(=O)Nc1cccc(S(=O)(=O)NCc2cccc3ccccc23)c1	%	20
CCCCCCCCCCCCCCCC(=O)NCC(=O)Nc1ccc(C(=O)N[C@@H](CCSC)C(=O)OC)cc1	%	22

Query: Give recorded inhibition. `CCCCCCCCCCCCCCCC(=O)NCCC(=O)Nc1ccc(C(=O)N[C@@H](CCSC)C(=O)OC)cc1`
Reply: 15

====

studyTarget: CAAX prenyl protease 2 (Homo sapiens)
Sequence (whole entry): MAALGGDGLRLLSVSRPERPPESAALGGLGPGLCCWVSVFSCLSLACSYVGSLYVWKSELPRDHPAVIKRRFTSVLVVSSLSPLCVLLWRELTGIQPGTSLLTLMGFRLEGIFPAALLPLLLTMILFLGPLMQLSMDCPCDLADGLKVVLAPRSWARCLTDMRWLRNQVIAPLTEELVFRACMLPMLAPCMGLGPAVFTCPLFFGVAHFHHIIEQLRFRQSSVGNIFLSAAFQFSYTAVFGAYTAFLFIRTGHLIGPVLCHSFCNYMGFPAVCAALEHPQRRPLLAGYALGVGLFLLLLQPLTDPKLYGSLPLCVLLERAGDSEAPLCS
assayDetails: Inhibition of recombinant prenyl protein-specific protease Rce1 in Sf9 cells at a concentration of 10 uM
measuredQuantity: inhibition

smilesText	result
CCCCCCCCCCCCCC(=O)NCCC(=O)Nc1cccc(S(=O)(=O)Nc2cccc(C)c2C)c1	< 5%
CCCCCCCCCCCCCCCC(=O)NCCC(=O)Nc1cccc(S(=O)(=O)Nc2cccc3ccccc23)c1	< 5%

As a next step, examine the compound that follows.
Query: Provide inhibition, tested on CAAX prenyl protease 2 (Homo sapiens), for `CCCCCCCC/C=C\CCCCCCCC(=O)NCCC(=O)Nc1cccc(S(=O)(=O)Nc2cccc(C)c2C)c1` .
Reply: < 5%
